Molecular target: intracellular phosphorylation of EGFR (Tyr1068) in PC-9 cells (Homo sapiens, UniProt P00533, DEL746-750)
Sequence (P00533 with tags, fused parts or gaps DEL746-750): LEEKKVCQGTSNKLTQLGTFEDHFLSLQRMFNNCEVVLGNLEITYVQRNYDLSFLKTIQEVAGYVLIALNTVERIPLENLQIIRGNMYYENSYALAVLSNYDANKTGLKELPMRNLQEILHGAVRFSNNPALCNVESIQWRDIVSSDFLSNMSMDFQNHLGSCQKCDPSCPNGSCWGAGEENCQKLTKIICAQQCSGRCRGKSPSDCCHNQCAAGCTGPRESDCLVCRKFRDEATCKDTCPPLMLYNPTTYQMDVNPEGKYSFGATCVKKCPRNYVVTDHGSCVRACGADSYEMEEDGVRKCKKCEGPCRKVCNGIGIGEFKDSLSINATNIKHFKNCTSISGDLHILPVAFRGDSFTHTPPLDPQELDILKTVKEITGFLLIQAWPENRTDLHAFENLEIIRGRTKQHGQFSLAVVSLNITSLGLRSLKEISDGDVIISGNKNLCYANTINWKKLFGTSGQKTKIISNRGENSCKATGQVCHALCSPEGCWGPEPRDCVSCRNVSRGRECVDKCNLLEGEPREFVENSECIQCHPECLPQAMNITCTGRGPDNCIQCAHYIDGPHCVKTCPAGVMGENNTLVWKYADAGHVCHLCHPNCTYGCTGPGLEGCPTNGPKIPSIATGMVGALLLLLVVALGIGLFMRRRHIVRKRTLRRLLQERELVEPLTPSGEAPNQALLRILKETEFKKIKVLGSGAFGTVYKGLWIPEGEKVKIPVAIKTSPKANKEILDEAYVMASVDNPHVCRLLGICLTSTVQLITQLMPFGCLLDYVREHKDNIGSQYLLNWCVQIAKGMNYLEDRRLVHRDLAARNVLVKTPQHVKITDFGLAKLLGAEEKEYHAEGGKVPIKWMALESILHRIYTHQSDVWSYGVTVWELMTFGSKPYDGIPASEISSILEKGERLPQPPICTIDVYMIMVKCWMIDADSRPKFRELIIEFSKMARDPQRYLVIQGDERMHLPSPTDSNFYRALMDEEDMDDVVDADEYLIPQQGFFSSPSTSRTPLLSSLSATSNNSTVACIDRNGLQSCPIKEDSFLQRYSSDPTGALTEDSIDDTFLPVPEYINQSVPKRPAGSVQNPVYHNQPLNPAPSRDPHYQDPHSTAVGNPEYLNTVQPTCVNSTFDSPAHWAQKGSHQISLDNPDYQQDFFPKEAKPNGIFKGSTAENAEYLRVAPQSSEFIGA
Test: PC-9 pEGFR AlphaLISA assay
Details: 4 hours incubation, read-out: Phos EGFR PC9 IC50
Each entry below carries its recorded IC50.

1) Cn1cc(-c2cc(OC[C@]34COC[C@H]3C4)c3c(Nc4ccc5ncsc5c4)ncnc3c2)cn1 (single isomer, unassigned) [Example 148]	0.0101 to 0.05 µM
2) Cn1cc(-c2cc(OC3CC3)c3c(Nc4ccc5ncsc5c4)ncnc3c2)cn1 [Example 259]	≤ 0.01 µM
3) COc1nn(C)cc1-c1cc(O[C@H](C)C2COC2)c2c(Nc3ccc4ncsc4c3F)ncnc2c1 (single isomer, unassigned) [Example 78]	≤ 0.01 µM
4) COC[C@H](C)Oc1cc(N2CCN(C(C)C)C2=O)cc2ncnc(Nc3ccc4ncsc4c3)c12 (single isomer, unassigned) [Example 118]	≤ 0.01 µM
5) CC(Oc1cc(-c2cnn(C)c2)cc2ncnc(Nc3ccc4ncsc4c3)c12)C(F)F (racemic) [Example 51]	≤ 0.01 µM

Next item in the queue.
Report measured IC50; entry is C[C@@H](Oc1cc(-c2cnn(C)c2)cc2ncnc(Nc3ccc4ncsc4c3F)c12)C1CN(C)C1 (single isomer, unassigned) [Example 388] > 0.0501 µM

---

Each entry below carries its recorded IC50.
Biological target: EGFR L858R (Homo sapiens, UniProt P00533, L858R)
Construct: purchased SignalChem E10-122BG
Sequence (P00533 25-1210 L858R): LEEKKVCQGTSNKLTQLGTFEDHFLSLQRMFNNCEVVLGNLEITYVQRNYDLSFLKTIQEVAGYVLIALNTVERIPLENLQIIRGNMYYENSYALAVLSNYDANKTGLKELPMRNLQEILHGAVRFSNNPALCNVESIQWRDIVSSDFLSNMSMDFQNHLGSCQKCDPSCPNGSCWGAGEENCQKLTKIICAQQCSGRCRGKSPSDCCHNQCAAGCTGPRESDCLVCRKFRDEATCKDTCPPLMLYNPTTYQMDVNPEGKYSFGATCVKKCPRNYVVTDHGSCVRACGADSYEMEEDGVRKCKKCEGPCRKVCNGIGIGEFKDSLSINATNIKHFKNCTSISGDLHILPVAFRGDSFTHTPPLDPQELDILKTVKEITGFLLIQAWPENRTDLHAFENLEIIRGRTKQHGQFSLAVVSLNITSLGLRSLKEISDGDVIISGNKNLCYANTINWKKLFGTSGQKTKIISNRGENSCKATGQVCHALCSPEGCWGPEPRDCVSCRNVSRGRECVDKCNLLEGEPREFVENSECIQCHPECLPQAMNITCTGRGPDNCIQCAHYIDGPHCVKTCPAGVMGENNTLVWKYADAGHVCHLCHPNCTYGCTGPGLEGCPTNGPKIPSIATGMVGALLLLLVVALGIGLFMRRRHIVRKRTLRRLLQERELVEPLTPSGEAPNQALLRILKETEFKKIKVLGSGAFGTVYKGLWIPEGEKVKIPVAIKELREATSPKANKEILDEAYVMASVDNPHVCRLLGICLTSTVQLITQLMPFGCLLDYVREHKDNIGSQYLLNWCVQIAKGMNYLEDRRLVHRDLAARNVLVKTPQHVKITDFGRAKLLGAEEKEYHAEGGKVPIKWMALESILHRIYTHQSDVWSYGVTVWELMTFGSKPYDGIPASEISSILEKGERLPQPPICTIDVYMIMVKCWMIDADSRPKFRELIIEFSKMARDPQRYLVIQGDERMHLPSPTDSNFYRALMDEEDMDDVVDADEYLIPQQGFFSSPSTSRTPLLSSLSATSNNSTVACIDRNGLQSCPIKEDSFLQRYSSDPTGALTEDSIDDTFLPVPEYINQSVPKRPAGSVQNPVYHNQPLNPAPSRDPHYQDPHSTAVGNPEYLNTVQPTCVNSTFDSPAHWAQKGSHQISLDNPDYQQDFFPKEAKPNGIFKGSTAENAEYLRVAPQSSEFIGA
Assay: Biochemical EGFR inhibition assay (Caliper mobility shift), EGFR L858R
Details: biochemical Caliper mobility shift assay, EGFR L858R enzyme; read-out: Enz EGFR L858R IC50

1. Cn1cc(-c2cc(OC3COCC3(F)F)c3c(Nc4ccc5ncsc5c4)ncnc3c2)cn1 (stereo not shown)	≤ 0.01 µM
2. Cn1cc(-c2cc(O[C@H]3CC[C@H]3O)c3c(Nc4ccc5ncsc5c4)ncnc3c2)cn1	≤ 0.01 µM
3. CN1CCC2(COC2)[C@H](Oc2cc(-c3cnn(C)c3)cc3ncnc(Nc4ccc5ncsc5c4)c23)C1 (single isomer, unassigned) [Example 354]	0.0101 to 0.05 µM

Next item in the queue.
Report measured IC50; entry is Cn1cc(-c2cc(OCC3COC3)c3c(Nc4ccc5ncsc5c4F)ncnc3c2)cn1 ≤ 0.01 µM

---

Biological target: EGFR L858R (Homo sapiens, UniProt P00533, L858R)
Construct: purchased SignalChem E10-122BG
Experiment: Biochemical EGFR inhibition assay (Caliper mobility shift), EGFR L858R
Details: biochemical Caliper mobility shift assay, EGFR L858R enzyme; read-out: Enz EGFR L858R IC50
pIC50: −log10 of the molar value.
measurement-label: pIC50

Solved cases below.
1) Cn1cc(-c2cc(O[C@H]3CNC[C@@H]3F)c3c(Nc4ccc5ncsc5c4)ncnc3c2)cn1	7.30 to 8.00
2) COc1nn(C)cc1-c1cc(O[C@@H]2COC[C@H]2F)c2c(Nc3ccc4ncsc4c3)ncnc2c1 (racemic)	7.30 to 8.00
3) CN1CC[C@H](Oc2cc(-c3cnn(C)c3)cc3ncnc(Nc4ccc5ncsc5c4)c23)C1=O (single isomer, unassigned) [Example 23]	≥ 8.00
4) Cn1cc(-c2cc(O[C@H]3CNCC[C@@H]3O)c3c(Nc4ccc5ncsc5c4)ncnc3c2)cn1 (racemic)	7.30 to 8.00

Report measured pIC50; entry is C[C@@H](Oc1cc(N2CCN(C)CC2)cc2ncnc(Nc3ccc4ncsc4c3F)c12)C1COC1 (single isomer, unassigned) [Example 94] ≥ 8.00

Report measured pIC50; entry is C[C@H](Oc1cc(N2CCN(C)C2=O)cc2ncnc(Nc3ccc4ncsc4c3)c12)C1COC1 (single isomer, unassigned) [Example 158] ≥ 8.00

Report measured pIC50; entry is Cn1cc(-c2cc(OCC#N)c3c(Nc4ccc5ncsc5c4)ncnc3c2)cn1 ≥ 8.00

Report measured pIC50; entry is CN1CC[C@H](Oc2cc(-c3cn(C)nc3OC(F)F)cc3ncnc(Nc4ccc5ncsc5c4)c23)[C@@H](F)C1 (single isomer, unassigned) [Example 369] 7.30 to 8.00

Report measured pIC50; entry is CN1CCN(c2cc(OC3CCOCC3)c3c(Nc4ccc5ncsc5c4)ncnc3c2)CC1(C)C < 7.30

Report measured pIC50; entry is C[C@H](CN(C)C)Oc1cc(N2CC3CC(C2)O3)cc2ncnc(Nc3ccc4ncsc4c3F)c12 7.30 to 8.00

Report measured pIC50; entry is CN1CC[C@@H](Oc2cc(-c3cnn(C)c3)cc3ncnc(Nc4ccc5ncsc5c4)c23)C1 7.30 to 8.00

Report measured pIC50; entry is CN1CCC(Oc2cc(-c3ccc(S(C)(=O)=O)cc3)cc3ncnc(Nc4ccc5ncsc5c4)c23)CC1 7.30 to 8.00

Report measured pIC50; entry is Cn1cc(-c2cc(O[C@H]3COC[C@@H]3O)c3c(Nc4ccc5ncsc5c4)ncnc3c2)cn1 (single isomer, unassigned) [Example A29] ≥ 8.00

Report measured pIC50; entry is COc1cc2ncnc(Nc3ccc4ncsc4c3)c2cc1NC(=O)CCN1CCCCC1 7.30 to 8.00

---

Molecular target: EGFR (d746-750) (Homo sapiens, UniProt P00533, DEL746-750)
Construct: purchased SignalChem E10-122JG
Sequence (P00533 with tags, fused parts or gaps DEL746-750 limits assumed): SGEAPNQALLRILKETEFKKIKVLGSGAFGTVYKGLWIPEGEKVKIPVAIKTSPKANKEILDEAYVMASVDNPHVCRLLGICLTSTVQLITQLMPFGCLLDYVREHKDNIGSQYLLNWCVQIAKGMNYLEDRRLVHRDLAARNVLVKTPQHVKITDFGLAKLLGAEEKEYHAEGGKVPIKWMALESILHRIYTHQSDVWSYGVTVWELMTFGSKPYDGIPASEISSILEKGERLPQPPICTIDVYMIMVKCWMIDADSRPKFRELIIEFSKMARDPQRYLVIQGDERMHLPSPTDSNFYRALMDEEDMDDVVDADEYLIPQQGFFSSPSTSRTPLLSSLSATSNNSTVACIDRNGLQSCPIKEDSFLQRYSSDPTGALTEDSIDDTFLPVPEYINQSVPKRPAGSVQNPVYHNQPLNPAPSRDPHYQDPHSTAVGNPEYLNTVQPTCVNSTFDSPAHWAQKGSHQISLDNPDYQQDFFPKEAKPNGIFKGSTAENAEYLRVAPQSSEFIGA
Assay: Biochemical EGFR inhibition assay (Caliper mobility shift), EGFR (d746-750)
Details: biochemical Caliper mobility shift assay, EGFR Exon 19-del enzyme; read-out: Enz EGFR Exon 19-del IC50
pIC50: −log10 of the molar value.
measurement-label: pIC50

Solved cases below.
1. Cn1cc(-c2cc(OCC3CCOC3)c3c(Nc4ccc5ncsc5c4)ncnc3c2)cn1 (single isomer, unassigned) [Example 41]	≥ 8.00
2. C[C@@H](Oc1cc(-c2cnn(C)c2)cc2ncnc(Nc3ccc4ncsc4c3)c12)[C@H](C)N(C)C (single isomer, unassigned) [Example 144]	≥ 8.00

Next item in the queue.
Report measured pIC50; entry is CN1CCC[C@H](Oc2cc(-c3cn(C)nc3OC(F)F)cc3ncnc(Nc4ccc5ncsc5c4)c23)C1 ≥ 8.00

---

Each entry below carries its recorded pIC50.
Target: EGFR L858R (Homo sapiens, UniProt P00533, L858R)
Construct: purchased SignalChem E10-122BG
Assay: Biochemical EGFR inhibition assay (Caliper mobility shift), EGFR L858R
Settings: biochemical Caliper mobility shift assay, EGFR L858R enzyme; read-out: Enz EGFR L858R IC50
pIC50: −log10 of the molar value.

Solved cases below.
1) CC(Oc1cc(-c2cn[nH]c2)cc2ncnc(Nc3ccc4ncsc4c3)c12)C1COC1 (single isomer, unassigned) [Example 122]	≥ 8.00
2) CN1CCC[C@H](Oc2cc(-c3cn(C)n(C(F)F)c3=O)cc3ncnc(Nc4ccc5ncsc5c4)c23)C1	≥ 8.00
3) C[C@@H]1CN(c2cc(O[C@H](C)C3COC3)c3c(Nc4ccc5ncsc5c4)ncnc3c2)C[C@H](C)O1	≥ 8.00

Report measured pIC50; entry is CCC(=O)N1CCC(Nc2cc3c(Nc4ccc5ncsc5c4)ncnc3cc2-c2ccn(C)n2)CC1 ≥ 8.00

Report measured pIC50; entry is C[C@@H]1OC[C@H]1Oc1cc(-c2cnn(C)c2)cc2ncnc(Nc3ccc4ncsc4c3)c12 (racemic) ≥ 8.00

Report measured pIC50; entry is COc1nn(C)cc1-c1cc(O[C@H](C)C2COC2)c2c(Nc3ccc4ncsc4c3F)ncnc2c1 (single isomer, unassigned) [Example 78] ≥ 8.00

Report measured pIC50; entry is CN1CC[C@H](O)[C@@H](Oc2cc(-c3cnn(C)c3)cc3ncnc(Nc4ccc5ncsc5c4)c23)C1 (single isomer, unassigned) [Example A33] ≥ 8.00

Report measured pIC50; entry is C[C@@H](Oc1cc(-c2cnn(C)c2)cc2ncnc(Nc3ccc4ncsc4c3)c12)C(F)F (single isomer, unassigned) [Example 52] ≥ 8.00

Report measured pIC50; entry is C[C@@H](Oc1cc(-c2cnn(C)c2)cc2ncnc(Nc3ccc4ncsc4c3F)c12)[C@@H]1CCCO1 ≥ 8.00

Report measured pIC50; entry is C[C@@H]1CN(C)CCN1c1cc(O[C@H](C)C2COC2)c2c(Nc3ccc4ncsc4c3F)ncnc2c1 (single isomer, unassigned) [Example 107] 7.30 to 8.00

Report measured pIC50; entry is COc1nn(C)cc1-c1cc(O[C@H]2CCNC[C@@H]2F)c2c(Nc3ccc4ncsc4c3)ncnc2c1 (single isomer, unassigned) [Example 361] ≥ 8.00

Report measured pIC50; entry is Cn1cc(-c2cc(O[C@@H]3C[C@@H](O)[C@@H](O)C3)c3c(Nc4ccc5ncsc5c4)ncnc3c2)cn1 (single isomer, unassigned) [Example A22] ≥ 8.00

Report measured pIC50; entry is C[C@@H](Oc1cc(-c2cnn(C)c2)cc2ncnc(Nc3ccc4ncsc4c3)c12)C(F)F (single isomer, unassigned) [Example 53] ≥ 8.00

---

Molecular target: intracellular phosphorylation of EGFR (Tyr1068) in PC-9 cells (Homo sapiens, UniProt P00533, DEL746-750)
Assay: PC-9 pEGFR AlphaLISA assay
Conditions: 4 hours incubation, read-out: Phos EGFR PC9 IC50
pIC50: −log10 of the molar value.
measurement-label: pIC50

Solved cases below.
1. COc1nn(C)cc1-c1cc(O[C@H]2CN(C)C[C@H]2F)c2c(Nc3ccc4ncsc4c3)ncnc2c1 (single isomer, unassigned) [Example 373]	≥ 8.00
2. C[C@@H](Oc1cc(-c2cnn(C)c2)cc2ncnc(Nc3ccc4ncsc4c3F)c12)C1CCOCC1 (single isomer, unassigned) [Example 110]	7.30 to 8.00

Next item in the queue.
Report measured pIC50; entry is Cn1cc(-c2cc(O[C@H]3CCCN(C4COC4)C3)c3c(Nc4ccc5ncsc5c4)ncnc3c2)cn1 ≥ 8.00
